molecular target: CDK4-CYCLIND1 (Homo sapiens, UniProt P11802); experiment: Microfluidic LabChip inhibition assay, CDK4-CYCLIND1; assay type: biochemical; details: Table 3b; ATP 200 μM; second values in parentheses on the line below, not explained; read-out: CDK4 CyclinD1 IC50
Sequence (P11802 whole entry): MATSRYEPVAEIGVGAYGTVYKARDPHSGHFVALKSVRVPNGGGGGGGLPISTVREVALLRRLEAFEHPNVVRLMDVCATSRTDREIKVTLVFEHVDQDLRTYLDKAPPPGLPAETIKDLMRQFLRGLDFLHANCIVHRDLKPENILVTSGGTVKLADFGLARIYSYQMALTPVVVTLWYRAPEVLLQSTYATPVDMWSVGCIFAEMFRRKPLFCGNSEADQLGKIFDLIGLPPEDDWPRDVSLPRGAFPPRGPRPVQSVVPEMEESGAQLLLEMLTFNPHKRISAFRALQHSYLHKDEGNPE
Sequence (P24385 whole entry partner): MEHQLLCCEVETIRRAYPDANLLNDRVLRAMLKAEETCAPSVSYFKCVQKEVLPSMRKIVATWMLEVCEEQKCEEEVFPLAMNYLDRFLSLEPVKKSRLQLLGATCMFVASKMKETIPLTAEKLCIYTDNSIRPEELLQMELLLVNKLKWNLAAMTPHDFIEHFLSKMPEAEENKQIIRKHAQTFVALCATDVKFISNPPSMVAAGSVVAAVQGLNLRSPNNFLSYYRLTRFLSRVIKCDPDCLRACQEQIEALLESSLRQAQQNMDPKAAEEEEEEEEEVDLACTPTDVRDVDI
pIC50: −log10 of the molar value.
measured quantity: pIC50

a. CC(=O)c1c(C)c2cnc(Nc3ccc(OCCN4CCCCC4)cn3)nc2n(C2CCCC2)c1=O
b. CC(=O)c1c(C)c2cnc(Nc3ccc(OCCN4CCCC4)cn3)nc2n(C2CCCC2)c1=O
c. CN(C)CCOc1ccc(Nc2ncc3cc(C#N)c(=O)n(C45CC(C4)C5)c3n2)nc1
d. Cc1c(C(=O)N(C)C)c(=O)n(C2CCCC2)c2nc(Nc3ccc(N4CC(C)NC(C)C4)cc3)ncc12 (stereo not shown)
Place the items in sequence of falling pIC50. Please express your ranking as an ordered list of the labels.
d, b, a, c

* * *

target: UniProtKB P11802; test: Microfluidic LabChip inhibition assay, CDK4-CYCLIND1; format: biochemical; details: Table 2; ATP 200 μM, 25° C.; read-out: CDK4 IC50
measured quantity: IC50 (µM)

- CN(C)CCOc1ccc(Nc2ncc3cc(C#N)c(=O)n(C4CCCC4)c3n2)nc1: 0.0978

a. N#Cc1cc2cnc(Nc3cc(C(F)(F)F)c(N4CCNCC4)cn3)nc2n(C2CCCC2)c1=O
b. CN(C)[C@H]1CCN(c2ccc(Nc3ncc4cc(C#N)c(=O)n(C5CCCC5)c4n3)nc2)C1
c. N#Cc1cc2cnc(Nc3ccc(N4CC5(CNC5)C4)c(F)c3)nc2n(C2CCCC2)c1=O
Task field, ranking: reported IC50, descending order. Please express your ranking as an ordered list of the labels.
a, b, c
(a: 2.82 µM, b: 0.0469 µM, c: 0.00121 µM)

* * *

biological target: CDK4-CYCLIND1 (Homo sapiens, UniProt P11802); assay: Microfluidic LabChip inhibition assay, CDK4-CYCLIND1; format: biochemical; details: Table 2; ATP 200 μM, 25° C.; read-out: CDK4 IC50
pIC50: −log10 of the molar value.
measured quantity: pIC50

- N#Cc1cc2cnc(Nc3ccc(N4CCOCC4)c(F)c3)nc2n(C2CCCC2)c1=O: 7.95
- N#Cc1cc2cnc(Nc3ccc(N4CCNCC4)cc3F)nc2n(C2CCCC2)c1=O: 7.81
- N#Cc1cc2cnc(Nc3ccc(OCCN4CCCC4)c(F)c3)nc2n(C2CCCC2)c1=O: 8.12
- N#Cc1cc2cnc(Nc3ccc(N4CCC(N5CCOCC5)CC4)cn3)nc2n(C2CCCC2)c1=O: 8.03
- CC(C)N1CCN(c2ccc(Nc3ncc4cc(C#N)c(=O)n(C5CCCC5)c4n3)nc2)CC1: 8.12
- N#Cc1cc2cnc(Nc3ccc(N4CCNCC4)nc3)nc2n(C2CCCC2)c1=O: 8.16
- CN1CCN(c2ccc(Nc3ncc4cc(C#N)c(=O)n(C5CCCC5)c4n3)cc2)CC1: 8.77
- N#Cc1cc2cnc(Nc3ccc(N4CC5(CNC5)C4)cc3)nc2n(C2CCCC2)c1=O: 8.62

1. N#Cc1cc2cnc(Nc3ccc(N4CC5(CNC5)C4)nc3)nc2n(C2CCCC2)c1=O
2. CC(C)N1CCN(c2ccc(Nc3ncc4cc(C#N)c(=O)n(C5CCCC5)c4n3)cc2F)CC1
3. N#Cc1cc2cnc(N3CCC(N4CCOCC4)CC3)nc2n(C2CCCC2)c1=O
4. CN(C)[C@H]1CCN(c2ccc(Nc3ncc4cc(C#N)c(=O)n(C5CCCC5)c4n3)cc2F)C1
5. CN1CCN(c2ccc(Nc3ncc4cc(C#N)c(=O)n(C56CC(C5)C6)c4n3)nc2)CC1
Please put the entries in order of rising pIC50. Please express your ranking as an ordered list of the labels.
3, 5, 1, 4, 2
(3: 4.80, 5: 6.30, 1: 8.22, 4: 8.43, 2: 8.64)
